Biological target: αvβ3 integrin (Homo sapiens, UniProt P05106+P06756)
Sequence (P05106 27-788, one chain of several): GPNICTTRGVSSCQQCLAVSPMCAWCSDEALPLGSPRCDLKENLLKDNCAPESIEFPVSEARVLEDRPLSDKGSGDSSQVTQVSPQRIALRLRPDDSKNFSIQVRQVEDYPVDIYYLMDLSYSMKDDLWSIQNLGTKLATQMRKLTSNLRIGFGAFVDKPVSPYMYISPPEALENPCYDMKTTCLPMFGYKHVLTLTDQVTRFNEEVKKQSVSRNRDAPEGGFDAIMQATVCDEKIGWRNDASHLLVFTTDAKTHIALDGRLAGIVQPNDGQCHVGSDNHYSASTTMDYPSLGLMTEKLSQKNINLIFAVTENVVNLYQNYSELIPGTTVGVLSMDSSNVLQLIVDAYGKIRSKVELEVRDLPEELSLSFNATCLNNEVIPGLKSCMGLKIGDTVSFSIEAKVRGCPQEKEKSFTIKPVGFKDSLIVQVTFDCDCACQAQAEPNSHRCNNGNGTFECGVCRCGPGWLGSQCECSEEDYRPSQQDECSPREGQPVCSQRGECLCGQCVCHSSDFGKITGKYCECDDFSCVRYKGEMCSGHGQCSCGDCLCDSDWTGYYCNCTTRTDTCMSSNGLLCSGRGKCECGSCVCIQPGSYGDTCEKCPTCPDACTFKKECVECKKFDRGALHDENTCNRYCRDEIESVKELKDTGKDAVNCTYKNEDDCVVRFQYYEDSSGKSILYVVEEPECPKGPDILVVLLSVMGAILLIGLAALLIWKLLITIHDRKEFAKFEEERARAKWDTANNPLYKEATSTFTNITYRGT
Assay: IC50 binding activity, αvβ3 integrin
Details: read-out: IC50 ανβ3
observable: IC50 (nM)

- chemicalStructure: "[N-]=[N+]=NCCOCCOCCOCCOCCC(=O)NCCCOc1ccc([C@H](CC(=O)O)N2CCN(CCCc3ccc4c(n3)NCCC4)C2=O)cn1"
  IC50 (nM): 0.3
- chemicalStructure: "[N-]=[N+]=NCCOCCOCCOCCOc1ccc([C@H](CC(=O)O)N2CCN(CCCc3ccc4c(n3)NCCC4)C2=O)cc1F"
  IC50 (nM): 0.3

---

Biological target: αvβ5 integrin (Homo sapiens, UniProt P06756+P18084)
Sequence (P06756 31-1048): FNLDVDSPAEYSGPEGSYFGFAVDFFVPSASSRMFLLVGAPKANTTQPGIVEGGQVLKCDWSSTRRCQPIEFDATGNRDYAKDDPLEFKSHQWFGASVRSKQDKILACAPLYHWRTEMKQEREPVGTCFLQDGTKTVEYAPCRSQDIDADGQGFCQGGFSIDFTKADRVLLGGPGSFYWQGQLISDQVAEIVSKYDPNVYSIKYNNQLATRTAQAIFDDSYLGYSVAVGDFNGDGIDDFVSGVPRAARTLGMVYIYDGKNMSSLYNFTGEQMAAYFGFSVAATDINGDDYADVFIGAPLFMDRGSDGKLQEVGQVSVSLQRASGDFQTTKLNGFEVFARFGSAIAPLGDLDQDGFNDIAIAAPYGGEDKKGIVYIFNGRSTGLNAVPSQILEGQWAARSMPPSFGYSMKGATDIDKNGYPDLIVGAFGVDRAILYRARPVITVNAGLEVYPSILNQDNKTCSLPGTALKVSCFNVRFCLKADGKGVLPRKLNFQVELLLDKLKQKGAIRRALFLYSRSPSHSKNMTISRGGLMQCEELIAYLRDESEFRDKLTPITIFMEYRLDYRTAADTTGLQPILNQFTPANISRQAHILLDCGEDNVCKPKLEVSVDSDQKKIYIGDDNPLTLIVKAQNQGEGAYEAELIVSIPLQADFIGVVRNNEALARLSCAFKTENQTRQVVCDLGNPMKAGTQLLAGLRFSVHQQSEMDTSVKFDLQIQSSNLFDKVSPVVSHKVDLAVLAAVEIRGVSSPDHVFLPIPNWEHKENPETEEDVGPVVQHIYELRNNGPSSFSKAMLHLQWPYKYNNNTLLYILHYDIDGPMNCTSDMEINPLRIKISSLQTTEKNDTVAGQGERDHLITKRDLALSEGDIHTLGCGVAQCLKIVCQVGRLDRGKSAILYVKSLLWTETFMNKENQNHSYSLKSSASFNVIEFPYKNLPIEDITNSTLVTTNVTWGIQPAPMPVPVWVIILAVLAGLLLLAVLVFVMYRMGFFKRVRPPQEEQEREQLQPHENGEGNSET
Sequence (P18084 24-799): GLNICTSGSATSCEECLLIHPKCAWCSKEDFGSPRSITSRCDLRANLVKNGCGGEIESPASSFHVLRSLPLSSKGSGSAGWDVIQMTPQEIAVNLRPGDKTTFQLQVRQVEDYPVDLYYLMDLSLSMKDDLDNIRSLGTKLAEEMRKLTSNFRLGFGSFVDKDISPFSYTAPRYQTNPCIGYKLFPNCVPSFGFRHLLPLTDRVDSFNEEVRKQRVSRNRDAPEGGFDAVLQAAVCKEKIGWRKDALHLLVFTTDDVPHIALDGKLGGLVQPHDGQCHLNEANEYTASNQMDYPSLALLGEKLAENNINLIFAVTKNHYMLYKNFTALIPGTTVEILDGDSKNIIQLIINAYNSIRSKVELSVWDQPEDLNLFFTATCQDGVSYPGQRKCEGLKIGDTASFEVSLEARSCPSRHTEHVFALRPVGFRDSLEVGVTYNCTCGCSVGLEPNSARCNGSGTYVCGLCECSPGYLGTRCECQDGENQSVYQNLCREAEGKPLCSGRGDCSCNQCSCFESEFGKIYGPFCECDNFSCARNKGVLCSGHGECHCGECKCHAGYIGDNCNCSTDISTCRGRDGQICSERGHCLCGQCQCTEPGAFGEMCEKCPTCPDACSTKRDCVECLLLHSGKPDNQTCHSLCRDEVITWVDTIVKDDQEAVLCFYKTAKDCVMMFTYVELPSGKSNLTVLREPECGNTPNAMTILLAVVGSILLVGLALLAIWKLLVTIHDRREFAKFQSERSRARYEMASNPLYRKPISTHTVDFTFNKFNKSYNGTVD
Assay: IC50 binding activity, αvβ5 integrin
Conditions: read-out: IC50 ανβ5
pIC50: −log10 of the molar value.
observable: pIC50

a: [N-]=[N+]=NCCOCCOCCOCCOc1ccc([C@H](CC(=O)O)N2CCN(CCCc3ccc4c(n3)NCCC4)C2=O)cc1F
b: [N-]=[N+]=NCCOCCOCCOCCOCCC(=O)NCCCOc1ccc([C@H](CC(=O)O)N2CCN(CCCc3ccc4c(n3)NCCC4)C2=O)cn1
Enquiry: Two entries are listed, a and b . Which one carries the higher pIC50? Returns: label corresponding to the selected item.
Return: b
